FYI, the data here is from patent US20080058636A1.

Could you please report measured Human binding for the items listed next?
- system: human collagen type I (acid soluble, extracted from placenta, Sigma C7774) (human) (UniProt P02452)
- Sequence (P02452 162-1218 limits assumed, chain 1 of 2): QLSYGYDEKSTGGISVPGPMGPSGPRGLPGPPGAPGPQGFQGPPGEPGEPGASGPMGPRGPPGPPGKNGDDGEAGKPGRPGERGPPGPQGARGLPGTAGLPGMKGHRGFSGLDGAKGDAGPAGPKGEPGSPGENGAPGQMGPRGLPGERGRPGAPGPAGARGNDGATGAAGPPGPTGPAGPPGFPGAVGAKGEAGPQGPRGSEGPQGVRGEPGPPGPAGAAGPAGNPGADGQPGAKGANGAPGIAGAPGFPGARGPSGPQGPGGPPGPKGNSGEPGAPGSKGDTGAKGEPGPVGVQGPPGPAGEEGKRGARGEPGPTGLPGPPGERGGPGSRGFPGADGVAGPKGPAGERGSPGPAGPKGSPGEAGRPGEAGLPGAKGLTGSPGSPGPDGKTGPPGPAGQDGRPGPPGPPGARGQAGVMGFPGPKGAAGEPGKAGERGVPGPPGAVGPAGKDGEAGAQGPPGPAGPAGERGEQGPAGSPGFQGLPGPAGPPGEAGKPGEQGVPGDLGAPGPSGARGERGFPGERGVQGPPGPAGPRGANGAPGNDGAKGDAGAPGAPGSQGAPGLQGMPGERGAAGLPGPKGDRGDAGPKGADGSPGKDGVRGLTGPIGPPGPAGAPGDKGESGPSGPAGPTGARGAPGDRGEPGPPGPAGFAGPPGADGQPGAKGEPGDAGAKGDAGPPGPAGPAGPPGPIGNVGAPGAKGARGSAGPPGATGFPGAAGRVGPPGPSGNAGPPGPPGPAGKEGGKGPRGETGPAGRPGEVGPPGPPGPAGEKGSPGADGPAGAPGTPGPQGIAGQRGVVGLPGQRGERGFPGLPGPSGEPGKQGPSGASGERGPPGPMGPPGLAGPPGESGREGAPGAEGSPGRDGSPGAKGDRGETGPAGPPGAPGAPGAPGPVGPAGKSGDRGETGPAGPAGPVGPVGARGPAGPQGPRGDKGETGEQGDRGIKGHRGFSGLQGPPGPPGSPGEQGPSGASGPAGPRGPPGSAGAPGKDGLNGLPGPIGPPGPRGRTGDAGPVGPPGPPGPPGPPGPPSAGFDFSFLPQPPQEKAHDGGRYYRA
- Sequence (P08123 80-1119 limits assumed, chain 2 of 2, further chain): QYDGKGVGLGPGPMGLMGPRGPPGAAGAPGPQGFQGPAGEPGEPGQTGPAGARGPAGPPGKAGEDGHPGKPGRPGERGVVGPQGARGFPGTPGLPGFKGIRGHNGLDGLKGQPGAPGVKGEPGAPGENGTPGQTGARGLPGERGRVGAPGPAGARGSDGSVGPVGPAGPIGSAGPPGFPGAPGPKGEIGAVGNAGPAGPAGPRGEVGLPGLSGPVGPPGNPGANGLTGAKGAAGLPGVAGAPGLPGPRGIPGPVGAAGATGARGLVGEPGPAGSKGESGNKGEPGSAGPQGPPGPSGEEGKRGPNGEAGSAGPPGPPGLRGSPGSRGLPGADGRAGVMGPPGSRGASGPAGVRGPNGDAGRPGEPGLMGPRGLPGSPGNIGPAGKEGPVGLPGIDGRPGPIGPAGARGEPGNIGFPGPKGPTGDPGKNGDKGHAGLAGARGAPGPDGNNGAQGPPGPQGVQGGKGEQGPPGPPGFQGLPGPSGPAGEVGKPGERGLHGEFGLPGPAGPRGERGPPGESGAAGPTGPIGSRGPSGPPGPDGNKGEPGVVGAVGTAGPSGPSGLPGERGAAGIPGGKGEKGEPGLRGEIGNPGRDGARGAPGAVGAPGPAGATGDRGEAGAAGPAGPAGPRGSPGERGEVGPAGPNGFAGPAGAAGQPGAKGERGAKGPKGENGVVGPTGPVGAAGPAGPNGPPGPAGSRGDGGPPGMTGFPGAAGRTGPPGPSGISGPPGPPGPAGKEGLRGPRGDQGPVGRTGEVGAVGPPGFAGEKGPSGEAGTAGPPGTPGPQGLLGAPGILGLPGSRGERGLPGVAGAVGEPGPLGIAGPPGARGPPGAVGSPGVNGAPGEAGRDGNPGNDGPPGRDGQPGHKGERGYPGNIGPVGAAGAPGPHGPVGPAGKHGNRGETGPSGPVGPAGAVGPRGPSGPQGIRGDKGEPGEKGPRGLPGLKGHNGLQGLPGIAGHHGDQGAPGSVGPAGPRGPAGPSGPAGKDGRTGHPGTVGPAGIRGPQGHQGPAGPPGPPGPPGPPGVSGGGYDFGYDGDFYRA
- assay: dried collagen assay, 5 uM each

Any idea what its Human binding is? The binder is GKWHCTTYFPHHYCLYY [Compound ID 949]
72%

// query Human binding value for entry PPQWHCTTRFPHHYCLYG [Compound ID 854]
64%

Consider the binder GKWHCTTKFPHHYCLYY [Compound ID 980] and give its measured Human binding.
85%

Endpoint output: Human binding of DWTCSLDEYTWHCNYE [Compound ID 847] . Value?
16%

Please look up its Human binding: GKWHCYTYFPHHYCVYGK [Compound ID 974]
71%

GET /values?readout=Human binding&item= GQWHCATRFPHHYCLYG [Compound ID 877]
58%

Give its Human binding value. Item: GAWHCTTYFPHHYCLYG [Compound ID 915]
15%

Would you kindly share the measured Human binding for GQWTCSGDAYTWHCAYE [Compound ID 820] ?
60%

Consider the binder shown here: DWTCSGDEYYWHCNYE [Compound ID 834] What is its recorded Human binding?
22%

Give the measured Human binding of GKWHCTTYFPYHYCLYG [Compound ID 946] .
71%

So what's the measured Human binding for this one? GKWHCYTYFPHHYCLYGK [Compound ID 996]
76%

What measured Human binding goes with GQWHCTTRFPHHYCAYG [Compound ID 855] ?
27%

Consider the binder shown here: GQWHCTTLFPHHYCVYG [Compound ID 928] What is its recorded Human binding?
73%

Data request, read-out Human binding, for GFKWHCTTYFPHHYCLYG [Compound ID 983]
58%

Which measured Human binding value corresponds to GKWHCTTYFPHYYCLYG [Compound ID 947] ?
64%
